Molecular target: T1, human LAG-3 (full length, on the cell surface) (human, UniProt P18627 23-525)
T1 sequence: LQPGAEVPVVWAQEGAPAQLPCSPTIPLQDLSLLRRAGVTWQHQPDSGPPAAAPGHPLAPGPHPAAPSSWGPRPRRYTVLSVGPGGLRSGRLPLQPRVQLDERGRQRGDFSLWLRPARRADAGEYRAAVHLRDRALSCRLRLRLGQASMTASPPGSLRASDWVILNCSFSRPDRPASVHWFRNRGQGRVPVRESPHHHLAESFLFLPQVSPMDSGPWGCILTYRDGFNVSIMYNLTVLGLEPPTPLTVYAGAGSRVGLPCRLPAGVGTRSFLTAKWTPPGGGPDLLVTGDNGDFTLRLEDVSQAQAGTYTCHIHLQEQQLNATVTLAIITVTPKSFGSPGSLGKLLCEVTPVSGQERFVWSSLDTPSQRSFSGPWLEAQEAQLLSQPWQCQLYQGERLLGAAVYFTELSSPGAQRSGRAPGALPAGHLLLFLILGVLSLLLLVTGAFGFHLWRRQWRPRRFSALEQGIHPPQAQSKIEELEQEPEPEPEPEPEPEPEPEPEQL
Test: cell-based or functional assay
measured_parameter: mIL-2 (pg/mL), antigen-specific T lymphocyte stimulation test; antibody 10 ug/mL

- 405B8H3 (mouse antibody purified from hybridoma) (antibody, V domains shown, also called mAb103-405B8H3; 405B81-13) VH: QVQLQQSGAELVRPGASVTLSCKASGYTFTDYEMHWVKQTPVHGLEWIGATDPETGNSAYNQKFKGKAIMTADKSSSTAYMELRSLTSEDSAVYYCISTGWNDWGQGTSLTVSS VL: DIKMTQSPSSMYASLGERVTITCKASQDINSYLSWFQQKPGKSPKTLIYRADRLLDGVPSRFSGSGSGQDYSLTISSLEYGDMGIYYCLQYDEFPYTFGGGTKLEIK: 441
- 556F6B8 (mouse antibody purified from hybridoma) (antibody, V domains shown, also called mAb123-556F6B8) VH: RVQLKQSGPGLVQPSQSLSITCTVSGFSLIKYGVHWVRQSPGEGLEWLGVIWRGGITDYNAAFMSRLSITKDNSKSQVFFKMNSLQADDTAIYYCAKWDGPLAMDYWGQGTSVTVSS VL: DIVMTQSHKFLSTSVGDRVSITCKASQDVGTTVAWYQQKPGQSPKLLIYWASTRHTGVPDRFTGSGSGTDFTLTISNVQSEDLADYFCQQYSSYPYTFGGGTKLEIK: 255
- 409D4E10 (mouse antibody purified from hybridoma) (antibody, V domains shown, also called mAb112-409D4E10) VH: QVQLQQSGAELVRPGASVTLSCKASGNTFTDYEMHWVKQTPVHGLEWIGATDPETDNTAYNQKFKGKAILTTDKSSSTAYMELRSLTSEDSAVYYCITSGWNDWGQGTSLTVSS VL: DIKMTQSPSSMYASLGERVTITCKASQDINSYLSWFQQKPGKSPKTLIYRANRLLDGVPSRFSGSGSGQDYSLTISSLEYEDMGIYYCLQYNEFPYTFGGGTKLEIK: 335
- 409B11E12 (mouse antibody purified from hybridoma) (antibody, V domains shown, also called mAb104-409B11E12) VH: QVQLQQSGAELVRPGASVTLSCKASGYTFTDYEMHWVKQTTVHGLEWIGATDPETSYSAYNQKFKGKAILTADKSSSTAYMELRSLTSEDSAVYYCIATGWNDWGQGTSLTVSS VL: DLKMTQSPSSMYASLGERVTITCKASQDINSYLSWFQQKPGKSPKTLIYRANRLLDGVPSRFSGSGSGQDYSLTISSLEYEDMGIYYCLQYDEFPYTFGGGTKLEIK: 364
